molecular target: GST tagged IRAK4 (Homo sapiens (Human))
pIC50: −log10 of the molar value.
Readout: pIC50

1) C[C@]1(Nc2ncnc3ccc(C#N)cc23)CC[C@H](N2CCC(F)CC2)CC1 7.13
2) CN(C)[C@H]1CC[C@H](Nc2ncnc3ccc(Br)cc23)CC1 8.05
3) N#Cc1ccc2ncnc(N[C@H]3CC[C@H](N4C5CCC4COC5)CC3)c2c1 6.06
4) Fc1cc2ncnc(N[C@H]3CC[C@H](N4CCOCC4)CC3)c2cc1Br 7.82
5) COc1cc2c(N[C@H]3CC[C@H](N4CCOCC4)CC3)ncnc2cc1F 7.24

====

// values below are reported pIC50
target: GST tagged IRAK4 (Homo sapiens (Human), UniProt Q9NWZ3)
Sequence (Q9NWZ3 whole entry): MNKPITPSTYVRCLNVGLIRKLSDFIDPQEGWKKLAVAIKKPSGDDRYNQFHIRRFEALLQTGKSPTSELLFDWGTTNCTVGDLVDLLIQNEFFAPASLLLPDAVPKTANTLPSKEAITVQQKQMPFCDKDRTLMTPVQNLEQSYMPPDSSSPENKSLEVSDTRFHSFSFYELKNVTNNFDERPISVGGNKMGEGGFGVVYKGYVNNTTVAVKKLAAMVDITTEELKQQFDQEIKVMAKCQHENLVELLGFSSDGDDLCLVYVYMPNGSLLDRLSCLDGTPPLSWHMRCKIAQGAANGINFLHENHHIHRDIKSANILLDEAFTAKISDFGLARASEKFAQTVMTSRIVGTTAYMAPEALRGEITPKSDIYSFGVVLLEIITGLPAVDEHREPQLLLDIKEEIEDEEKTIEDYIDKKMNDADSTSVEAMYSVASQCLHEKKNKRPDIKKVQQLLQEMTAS
pIC50: −log10 of the molar value.

Compound	Measured on	pIC50
N#Cc1ccc2ncnc(N[C@H]3CC[C@H](N4CCN(C(=O)C5CC(F)C5)CC4)CC3)c2c1 (stereo partly shown)	GST tagged IRAK4 (Homo sapiens (Human), UniProt Q9NWZ3)	8.00
CC1CC(N2CCOCC2)CCC1Nc1ncnc2ccc(C#N)cc12 (single isomer, unassigned)	GST tagged IRAK4 (Homo sapiens (Human), UniProt Q9NWZ3)	7.85
N#Cc1ccc2ncnc(N[C@H]3CC[C@H](N4CCCC(F)(F)CC4)CC3)c2c1	GST tagged IRAK4 (Homo sapiens (Human), UniProt Q9NWZ3)	7.92
N#Cc1ccc2ncnc(N[C@H]3CC[C@H](N4CCOC(CF)C4)CC3)c2c1 (stereo partly shown)	GST tagged IRAK4 (Homo sapiens (Human), UniProt Q9NWZ3)	8.10
N#Cc1ccc2ncnc(N[C@H]3CC[C@H](N4CCCC4)CC3)c2c1	GST tagged IRAK4 (Homo sapiens (Human), UniProt Q9NWZ3)	7.82
N#Cc1ccc2ncnc(N[C@H]3CC[C@H](N4CCC(F)CC4)CC3)c2c1	GST tagged IRAK4 (Homo sapiens (Human), UniProt Q9NWZ3)	8.52
CC1CN([C@H]2CC[C@H](Nc3ncnc4ccc(C#N)cc34)CC2)CC(C)O1 (single isomer, unassigned) [Example 3-15]	GST tagged IRAK4 (Homo sapiens (Human), UniProt Q9NWZ3)	7.24
CC(C)(C)C(=O)N1CCN([C@H]2CC[C@H](Nc3ncnc4ccc(C#N)cc34)CC2)CC1	GST tagged IRAK4 (Homo sapiens (Human), UniProt Q9NWZ3)	8.10
CC(=O)N1CCN([C@H]2CC[C@H](Nc3ncnc4ccc(C#N)cc34)CC2)CC1	GST tagged IRAK4 (Homo sapiens (Human), UniProt Q9NWZ3)	7.96
N#Cc1ccc2ncnc(N[C@H]3CC[C@H](N4CCN(C(=O)CF)CC4)CC3)c2c1	GST tagged IRAK4 (Homo sapiens (Human), UniProt Q9NWZ3)	7.64
N#Cc1ccc2ncnc(N[C@H]3CC[C@H](N4CCCC(C(F)(F)F)C4)CC3)c2c1 (single isomer, unassigned)	GST tagged IRAK4 (Homo sapiens (Human), UniProt Q9NWZ3)	7.48
N#Cc1ccc2ncnc(N[C@H]3CC[C@H](N4CCN(C(=O)C(O)C5CC5)CC4)CC3)c2c1 (stereo partly shown)	GST tagged IRAK4 (Homo sapiens (Human), UniProt Q9NWZ3)	8.10
COc1ccc2ncnc(N[C@H]3CC[C@H](N4CCOCC4)CC3)c2c1	GST tagged IRAK4 (Homo sapiens (Human), UniProt Q9NWZ3)	7.80
CO[C@@H]1CCN([C@H]2CC[C@H](Nc3ncnc4ccc(C#N)cc34)CC2)C1	GST tagged IRAK4 (Homo sapiens (Human), UniProt Q9NWZ3)	7.29
N#Cc1ccc2ncnc(NC3CCC(N4CCCC(C(F)(F)F)C4)CC3)c2c1 (single isomer, unassigned) [Example 3-3]	GST tagged IRAK4 (Homo sapiens (Human), UniProt Q9NWZ3)	8.15
Fc1ccc2ncnc(N[C@H]3CC[C@H](N4CCOCC4)CC3)c2c1	GST tagged IRAK4 (Homo sapiens (Human), UniProt Q9NWZ3)	6.95
C[C@]1(Nc2ncnc3ccc(C#N)cc23)CC[C@H](N2CCC(O)C2)CC1 (stereo partly shown)	GST tagged IRAK4 (Homo sapiens (Human), UniProt Q9NWZ3)	7.37
N#Cc1ccc2ncnc(N[C@H]3CC[C@H](N4CC[C@H](O)C4)CC3)c2c1	GST tagged IRAK4 (Homo sapiens (Human), UniProt Q9NWZ3)	7.48
N#Cc1ccc2ncnc(N[C@H]3CC[C@H](N4CCC(CN5CCOCC5)CC4)CC3)c2c1	GST tagged IRAK4 (Homo sapiens (Human), UniProt Q9NWZ3)	8.05
N#Cc1ccc2ncnc(N[C@H]3CC[C@H](N4CCN(C(=O)C(F)F)CC4)CC3)c2c1	GST tagged IRAK4 (Homo sapiens (Human), UniProt Q9NWZ3)	7.57
CS(=O)(=O)C1CCN([C@H]2CC[C@H](Nc3ncnc4ccc(C#N)cc34)CC2)C1 (stereo partly shown)	GST tagged IRAK4 (Homo sapiens (Human), UniProt Q9NWZ3)	7.85
N#Cc1ccc2ncnc(N[C@H]3CC[C@H](N4CCOC(CO)C4)CC3)c2c1 (single isomer, unassigned)	GST tagged IRAK4 (Homo sapiens (Human), UniProt Q9NWZ3)	8.22
C[C@H]1COCCN1[C@H]1CC[C@H](Nc2ncnc3ccc(C#N)cc23)CC1	GST tagged IRAK4 (Homo sapiens (Human), UniProt Q9NWZ3)	7.33
N#Cc1ccc2ncnc(N[C@H]3CC[C@H](N4CCN(C(=O)CCO)CC4)CC3)c2c1	GST tagged IRAK4 (Homo sapiens (Human), UniProt Q9NWZ3)	8.05
N#Cc1ccc2ncnc(N[C@H]3CC[C@H](N4CCOC5(CC5)C4)CC3)c2c1	GST tagged IRAK4 (Homo sapiens (Human), UniProt Q9NWZ3)	7.34
N#Cc1ccc2ncnc(N[C@H]3CC[C@H](N4CCCC(CN5CCOCC5)C4)CC3)c2c1 (single isomer, unassigned)	GST tagged IRAK4 (Homo sapiens (Human), UniProt Q9NWZ3)	7.15
N#Cc1ccc2ncnc(NC3CCC(N4CCCC(C(F)(F)F)C4)CC3)c2c1 (single isomer, unassigned) [Example 3-4]	GST tagged IRAK4 (Homo sapiens (Human), UniProt Q9NWZ3)	6.30
N#Cc1ccc2ncnc(N[C@H]3CC[C@H](N)CC3)c2c1	GST tagged IRAK4 (Homo sapiens (Human), UniProt Q9NWZ3)	7.51
